# System: KG1a
# experimentalProtocol: cell cytotoxicity EC50, CellTiter Glo, leukemia/lymphoma cell line
# Format: cell-based, human
# conditionContext: KG-1a, 10% human serum, 48 hours, read-out: EC50
attributeMeasured: EC50 (nM)
All answers are understood in nM, so give the number only.

Which EC50 is reported for this compound? CC1(C)CCC(c2ccc(Cl)cc2)=C(CN2CCN(c3ccc(C(=O)NS(=O)(=O)c4ccc(N[C@H](CCN5CCOCC5)CSc5ccccc5)c(S(=O)(=O)C(F)(F)F)c4)cc3)CC2)C1 [ABT-263]
243

----------
# Tested on: MEG-01
# experimentalProtocol: cell cytotoxicity EC50, CellTiter Glo, leukemia/lymphoma cell line
# Assay type: cell-based, human
# conditionContext: Homo sapiens, MEG-01; read-out: Response Designation
pEC50: −log10 of the molar value.
attributeMeasured: pEC50

Which pEC50 is reported for this compound? CC1(C)CCC(c2ccc(Cl)cc2)=C(CN2CCN(c3ccc(C(=O)NS(=O)(=O)c4ccc(N[C@H](CCN5CCOCC5)CSc5ccccc5)c(S(=O)(=O)C(F)(F)F)c4)cc3)CC2)C1
< 5.32

----------
# System: NCI-H889
# experimentalProtocol: cell cytotoxicity EC50, CellTiter Glo, SCLC cell line
# Assay type: cell-based, human
# conditionContext: 10% human serum, 48 hours, read-out: EC50
# Source text: […]
attributeMeasured: pEC50
Bear in mind: pEC50 is minus log10 of a mol/L concentration; give just that figure.

Which pEC50 is reported for this compound? CC1(C)CCC(c2ccc(Cl)cc2)=C(CN2CCN(c3ccc(C(=O)NS(=O)(=O)c4ccc(N[C@H](CCN5CCOCC5)CSc5ccccc5)c(S(=O)(=O)C(F)(F)F)c4)cc3)CC2)C1 [ABT-263]
6.85

----------
# Tested on: HBL-2
# experimentalProtocol: cell cytotoxicity EC50, CellTiter Glo, Mantle Cell Lymphoma cell line
# Assay type: cell-based, human
# conditionContext: HBL2, 10% human serum, 48 hours, read-out: EC50
attributeMeasured: EC50
Dear colleague, please send the value followed by its unit.

Which EC50 is reported for this compound? CC1(C)CCC(c2ccc(Cl)cc2)=C(CN2CCN(c3ccc(C(=O)NS(=O)(=O)c4ccc(N[C@H](CCN5CCOCC5)CSc5ccccc5)c(S(=O)(=O)C(F)(F)F)c4)cc3)CC2)C1
31 nM

----------
# Test system: NCI-H187
# experimentalProtocol: cell cytotoxicity EC50, CellTiter Glo, SCLC cell line
# Assay type: cell-based, human
# conditionContext: Homo sapiens, read-out: Response Designation
attributeMeasured: EC50

Which EC50 is reported for this compound? CC1(C)CCC(c2ccc(Cl)cc2)=C(CN2CCN(c3ccc(C(=O)NS(=O)(=O)c4ccc(N[C@H](CCN5CCOCC5)CSc5ccccc5)c(S(=O)(=O)C(F)(F)F)c4)cc3)CC2)C1
≤ 4.1 µM

----------
# Test system: NCI-H2081
# experimentalProtocol: cell cytotoxicity EC50, CellTiter Glo, SCLC cell line
# Type: cell-based, human
# conditionContext: Homo sapiens, read-out: Response Designation
attributeMeasured: EC50

Which EC50 is reported for this compound? CC1(C)CCC(c2ccc(Cl)cc2)=C(CN2CCN(c3ccc(C(=O)NS(=O)(=O)c4ccc(N[C@H](CCN5CCOCC5)CSc5ccccc5)c(S(=O)(=O)C(F)(F)F)c4)cc3)CC2)C1 [ABT-263]
> 4.1 µM

----------
# System: MEG-01
# experimentalProtocol: cell cytotoxicity EC50, CellTiter Glo, leukemia/lymphoma cell line
# Type: cell-based, human
# conditionContext: Meg-01; 10% human serum; 48 hours; read-out: EC50
# Excerpt: […]
attributeMeasured: pEC50
Bear in mind: pEC50 is minus log10 of a mol/L concentration; give just that figure.

Which pEC50 is reported for this compound? CC1(C)CCC(c2ccc(Cl)cc2)=C(CN2CCN(c3ccc(C(=O)NS(=O)(=O)c4ccc(N[C@H](CCN5CCOCC5)CSc5ccccc5)c(S(=O)(=O)C(F)(F)F)c4)cc3)CC2)C1
5.22

----------
Reported pEC50 values for the following compounds.
# System: DMS 53
# experimentalProtocol: sensitivity of SCLC cell line, procedure of Oltersdorf
# Format: cell-based
# conditionContext: Homo sapiens, read-out: sensitivity class by EC50
pEC50: −log10 of the molar value.

INSERT INTO results (compoundstructurestring, attributemeasured, recordedvalue) VALUES
  ('CN(C)CC[C@H](CSc1ccccc1)Nc1ccc(S(=O)(=O)NC(=O)c2ccc(N3CCN(Cc4ccccc4-c4ccc(Cl)cc4)CC3)cc2)cc1[N+](=O)[O-]', 'pEC50', '> 5.30');

Read the next record carefully.
Which pEC50 is reported for this compound? CC1(C)CCC(c2ccc(Cl)cc2)=C(CN2CCN(c3ccc(C(=O)NS(=O)(=O)c4ccc(N[C@H](CCN5CCOCC5)CSc5ccccc5)c(S(=O)(=O)C(F)(F)F)c4)cc3)CC2)C1
> 5.30

----------
# Test system: NCI-H748
# experimentalProtocol: sensitivity of SCLC cell line, procedure of Oltersdorf
# Assay type: cell-based
# conditionContext: Homo sapiens, read-out: sensitivity class by EC50
pEC50: −log10 of the molar value.
attributeMeasured: pEC50

Which pEC50 is reported for this compound? CN(C)CC[C@H](CSc1ccccc1)Nc1ccc(S(=O)(=O)NC(=O)c2ccc(N3CCN(Cc4ccccc4-c4ccc(Cl)cc4)CC3)cc2)cc1[N+](=O)[O-] [ABT-737]
> 5.30

----------
# Test system: NCI-H1048
# experimentalProtocol: sensitivity of SCLC cell line, procedure of Oltersdorf
# Assay type: cell-based
# conditionContext: Homo sapiens, read-out: sensitivity class by EC50
pEC50: −log10 of the molar value.
Reported pEC50 values for the following molecules.

INSERT INTO assay_data (molecule, recordedvalue) VALUES
  ('CN(C)CC[C@H](CSc1ccccc1)Nc1ccc(S(=O)(=O)NC(=O)c2ccc(N3CCN(Cc4ccccc4-c4ccc(Cl)cc4)CC3)cc2)cc1[N+](=O)[O-] [ABT-737]', '< 5.30');

Read the next record carefully.
Which pEC50 is reported for this molecule? CC1(C)CCC(c2ccc(Cl)cc2)=C(CN2CCN(c3ccc(C(=O)NS(=O)(=O)c4ccc(N[C@H](CCN5CCOCC5)CSc5ccccc5)c(S(=O)(=O)C(F)(F)F)c4)cc3)CC2)C1 [ABT-263]
> 5.30

----------
# Tested on: NCI-H1836
# experimentalProtocol: cell cytotoxicity EC50, CellTiter Glo, SCLC cell line
# Format: cell-based, human
# conditionContext: 10% human serum, 48 hours, read-out: EC50
attributeMeasured: EC50 (µM)
All answers are understood in µM, so give the number only.

Which EC50 is reported for this compound? CC1(C)CCC(c2ccc(Cl)cc2)=C(CN2CCN(c3ccc(C(=O)NS(=O)(=O)c4ccc(N[C@H](CCN5CCOCC5)CSc5ccccc5)c(S(=O)(=O)C(F)(F)F)c4)cc3)CC2)C1
0.4

----------
# System: NCI-1048
# experimentalProtocol: cell cytotoxicity EC50, CellTiter Glo, SCLC cell line
# Type: cell-based, human
# conditionContext: Homo sapiens, read-out: Response Designation
attributeMeasured: EC50

Given the entry CC1(C)CCC(c2ccc(Cl)cc2)=C(CN2CCN(c3ccc(C(=O)NS(=O)(=O)c4ccc(N[C@H](CCN5CCOCC5)CSc5ccccc5)c(S(=O)(=O)C(F)(F)F)c4)cc3)CC2)C1 , what EC50 was observed with NCI-1048?
≤ 4.1 µM

----------
# System: Jurkat
# experimentalProtocol: sensitivity of leukemia/lymphoma cell line, 5 uM cut-off
# Assay type: cell-based
# conditionContext: Homo sapiens, read-out: sensitivity class by EC50
attributeMeasured: EC50

INSERT INTO assay_data (compoundstructurestring, assaysystem, attributemeasured, recordedvalue) VALUES
  ('CC1(C)CCC(c2ccc(Cl)cc2)=C(CN2CCN(c3ccc(C(=O)NS(=O)(=O)c4ccc(N[C@H](CCN5CCOCC5)CSc5ccccc5)c(S(=O)(=O)C(F)(F)F)c4)cc3)CC2)C1', 'Jurkat', 'EC50', '> 5 µM');

Which EC50 is reported for this compound? CN(C)CC[C@H](CSc1ccccc1)Nc1ccc(S(=O)(=O)NC(=O)c2ccc(N3CCN(Cc4ccccc4-c4ccc(Cl)cc4)CC3)cc2)cc1[N+](=O)[O-]
> 5 µM

----------
# Test system: DMS 114
# experimentalProtocol: cell cytotoxicity EC50, CellTiter Glo, SCLC cell line
# Type: cell-based, human
# conditionContext: 10% human serum, 48 hours, read-out: EC50
attributeMeasured: pEC50
Bear in mind: pEC50 is minus log10 of a mol/L concentration; give just that figure.

Which pEC50 is reported for this molecule? CC1(C)CCC(c2ccc(Cl)cc2)=C(CN2CCN(c3ccc(C(=O)NS(=O)(=O)c4ccc(N[C@H](CCN5CCOCC5)CSc5ccccc5)c(S(=O)(=O)C(F)(F)F)c4)cc3)CC2)C1
4.47

----------
# Tested on: NCI-H1436
# experimentalProtocol: cell cytotoxicity EC50, CellTiter Glo, SCLC cell line
# Type: cell-based, human
# conditionContext: Homo sapiens, read-out: Response Designation
pEC50: −log10 of the molar value.
attributeMeasured: pEC50

Which pEC50 is reported for this compound? CC1(C)CCC(c2ccc(Cl)cc2)=C(CN2CCN(c3ccc(C(=O)NS(=O)(=O)c4ccc(N[C@H](CCN5CCOCC5)CSc5ccccc5)c(S(=O)(=O)C(F)(F)F)c4)cc3)CC2)C1
≥ 5.39

The reported numbers originate from patent US20100028889A1.
